Attribution: patent US20260014143A1

# Test system: AR+ LNCaP cells
# assay.remarks: Cell growth of AR+ LNCaP cells
# Format: cell-based
measured.metric: Cell activity (inhibited cell growth in AR+ LNCaP cells)

{"columns": ["compound.structure.string", "study.system", "result"],
 "data": [
  ["C=CS(=O)(=O)N[C@@H]1CN(C(=O)c2ccc(S(N)(=O)=O)c(F)c2)C[C@H]1c1ccccc1", "AR+ LNCaP cells", "Yes"],
  ["C=CS(=O)(=O)N[C@@H]1CN(C(=O)c2ccc(S(N)(=O)=O)cc2)C[C@H]1c1ccccc1", "AR+ LNCaP cells", "Yes"],
  ["C=CS(=O)(=O)N[C@@H]1CN(C(=O)c2cccc(S(N)(=O)=O)c2)C[C@H]1c1ccccc1", "AR+ LNCaP cells", "Yes"],
  ["C=CS(=O)(=O)NC1CN(C(=O)[C@@H]2CN(C(=O)c3ccc(S(N)(=O)=O)c(F)c3)C[C@H]2c2ccccc2)C1", "AR+ LNCaP cells", "No"]
]}
